- Test system: Prostaglandin D2 receptor (Homo sapiens)
- Sequence (Q13258 whole entry): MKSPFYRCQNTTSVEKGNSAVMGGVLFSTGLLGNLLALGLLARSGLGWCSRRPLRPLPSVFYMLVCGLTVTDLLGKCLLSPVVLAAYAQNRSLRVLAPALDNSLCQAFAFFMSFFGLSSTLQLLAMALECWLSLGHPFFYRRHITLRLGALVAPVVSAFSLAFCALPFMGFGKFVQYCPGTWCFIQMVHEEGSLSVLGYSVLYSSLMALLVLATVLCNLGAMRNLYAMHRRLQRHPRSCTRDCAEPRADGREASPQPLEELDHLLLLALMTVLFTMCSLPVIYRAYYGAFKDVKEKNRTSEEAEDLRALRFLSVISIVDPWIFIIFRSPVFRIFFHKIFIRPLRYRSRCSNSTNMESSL
- Procedure details: Antagonist activity at prostaglandin D2 receptor in human LS174T cells assessed as inhibition of PGD2-induced cAMP accumulation after 15 mins by scintillation proximity assay
Readout name: IC50 (nM)

>>> df
                            compound_smiles  readout_name  scale_unit  measured
0  COc1ccc(CCNc2cc(-c3ccc(F)c(/C=N/O)c3)nc(OC)n2)cc1          IC50          nM      4.47

Recorded values, source ChEMBL document CHEMBL1641378.
